Use satisfied when the recorded logP is no lower than 1; use not satisfied when it is lower.

molecule=O=C(CN1CCCCC1)Nc1cccc(Br)c1 assigned_label=satisfied
molecule=C(=Cc1ccccn1)c1ccccn1 assigned_label=satisfied
molecule="CCCC(=NOCC)C1C(=O)CC2(CCCCC2C)OC1=O (centres undefined)" assigned_label=satisfied
molecule="C=CCC1(CC)C(=O)NC(=O)N(C)C1=O (centres undefined)" assigned_label=satisfied
molecule=CCN=C=S assigned_label=satisfied

// next entry
## Task Please tell me: is the molecule Cc1cnc(C)cn1 at or over 1 in terms of logP?
## Result not satisfied

---

Entries and their measured logP follow.
Peptide text beside a SMILES is read from it.
Respond numerically, and do not add a unit to the figure.

Please review the entries below; each comes with its answer.
molecule="CC(=O)N[C@@H](Cc1ccccc1)C(=O)N[C@H](C(N)=O)C(C)C (Ac-Phe-Val-NH2)" recorded_result=0.43
molecule=c1cn[nH]c1 recorded_result=0.26
molecule=O=C(O)COc1ccc(C2CCCCC2)cc1 recorded_result=3.79
molecule=Cc1ccccc1OC(=O)N(C)C recorded_result=1.86
molecule=O=C(OCc1ccccc1)n1c(=O)[nH]cc(F)c1=O recorded_result=1.42

## Task Requested read-out: logP. Entry: N#Cc1c[nH]c2ccccc12
## Result 2.32

## Task Param item: c1ccc2cnncc2c1
## Result 0.57

## Task Param item: N[C@@H](CCC(=O)O)C(=O)O
## Result -3.69

## Task Param item: CCCCNC(N)=O
## Result 0.41
